Where do these numbers come from? They come from ChEMBL document CHEMBL1156824.

- ASSAY NAME: Volume of distribution at steady state in human
- MEASUREMENT PARAMETERS: in vivo
VALUE TYPE: Vd (L/kg)
Write it as a number; the unit L/kg goes unstated.

// lookup Vd for O=C(O)c1cc(/N=N/c2ccc(O)c(C(=O)O)c2)ccc1O 0.07

// lookup Vd for O=C(O)P(=O)(O)O 0.5

// lookup Vd for CCN1CCCC1CNC(=O)c1cc(S(=O)(=O)CC)c(N)cc1OC (centres undefined) [AMISULPRIDE] 5.8

// lookup Vd for O=C1Cc2cc(CCN3CCN(c4nsc5ccccc45)CC3)c(Cl)cc2N1 1

// lookup Vd for COc1ccc(Cl)cc1C(=O)NCCc1ccc(S(=O)(=O)NC(=O)NC2CCCCC2)cc1 [GLYBURIDE] 0.08

// lookup Vd for CN1CCN(c2c(F)cc3c(=O)c(C(=O)O)cn(CCF)c3c2F)CC1 1.3

// lookup Vd for CNC(=C[N+](=O)[O-])NCCSCc1csc(CN(C)C)n1 1

// lookup Vd for CNC(=O)Oc1ccc2c(c1)[C@]1(C)CCN(C)[C@@H]1N2C 0.66

// lookup Vd for CCOC(=O)C1(c2ccccc2)CCC=CC1N(C)C (centres undefined) 4
